measured_attribute: melting point

compound: O=C1C(CCO)Oc2ccccc2N1Cc1cccc([N+](=O)[O-])c1 (stereo not drawn)
melting point: 128 to 130 °C

compound: O=C(C#Cc1ccc(Cl)cc1Cl)Nc1ccc2oc(CCN3CCCC3)nc2c1
melting point: 130 °C

compound: COc1ccc(Cl)cc1Nc1c(C#N)cnc2cc(OC)c(OC)cc12
melting point: 200 to 202 °C

compound: CC(C)(CO)COc1ccc(-n2cc(C(=O)O)cn2)cc1C#N
melting point: 188 to 190 °C

compound: CCOC(=O)C(C(=O)CC(C)C)C1c2ccccc2C(=O)N1c1ccc2ccc(Cl)nc2n1 (stereo not drawn)
melting point: 145 °C

Please look at the items below and tell me melting point for each one, in order.
1. CC(C)(C)OC(=O)NCc1ccc(Nc2ncnc3[nH]cc(C(=O)c4ccccc4)c23)cc1
2. NCCN1CCC(c2n[nH]c3cc(F)ccc23)CC1
3. CCC(O)(c1ccccc1)c1ccc(C(=O)O)cc1 (stereo not drawn)

Data returned:
["256 to 258 °C", "125 to 128 °C", "128 to 130 °C"]

====

measured_attribute: melting point (°C)
Answers are plain numbers, in °C.

smi: CCc1cn2ccccc2c1S(=O)(=O)c1ccc(O)cc1
measured_attribute: melting point
result: 204

Turning now to a further compound:
Data request: Find the measured melting point of C=C=CS(=O)(=O)c1ncc(Cl)cn1 and report it.
Data returned: 130

====

Provide the recorded melting point for the entries that follow.

Here's what some known entries look like.
compound: CC1(C)Oc2ccsc2C(N2CC(=O)NCC2=O)C1O (stereo not drawn)
result: 132 to 133 °C

compound: CC(C)n1c(=O)nc(-c2ccc3c(c2)OCO3)c2cc3c(cc21)OCO3
result: 125 to 127 °C

Turning now to a further compound:
Data request: Find the measured melting point of CC(C)c1cccc(C(C)C)c1NC(=O)NCC1CCCc2ccccc21 (stereo not drawn) and report it.
Data returned: 189 to 190 °C

====

measured_attribute: melting point

molecule: CCOC(=O)C1=C(COCCCN(C)C)NC(C)=C(C(=O)OC)C1c1ccccc1Cl (stereo not drawn)
melting point: 77 to 78 °C

Please look at the items below and tell me melting point for each one, in order.
1. COC(=O)c1cc(C)c(NC(=O)c2cc(C(F)(F)F)nn2-c2ncccc2Cl)c(C(=O)NC(C)C)c1
2. COc1ccc(C(O)CNC(=O)C(N)=O)cc1OC1CCCC1 (stereo not drawn)

Data returned:
1: 199 to 200 °C; 2: 180 to 181 °C

====

measured_attribute: melting point

Here's what some known entries look like.
molecule: COc1ccc(NC(=O)OC(C)(C)C)c(C(=O)NCCc2ccc(N=C(N)c3cccs3)cc2)c1
result: 190 to 192 °C
--
molecule: Cc1nnc(SCC2=C(C(=O)OC(c3ccccc3)c3ccccc3)N3C(=O)C(N)C3SC2)s1 (configuration not stated)
result: 157 to 159 °C
--
molecule: CCCS(=O)(=O)Oc1c(C(=O)c2ccc3c(c2C)C(SCC)CCS3(=O)=O)cnn1CC (configuration not stated)
result: 140 to 145 °C

Please look at the items below and tell me melting point for each one, in order.
1. CC(=O)N(C(C)=O)c1ncc(C#Cc2cnn3c(C(F)(F)F)cc(-c4ccc(C(F)(F)F)cc4)nc23)cn1
2. N#CC1=C(C2CC2)Nc2n[nH]cc2C1c1cccc(Cl)c1Cl (configuration not stated)

Data returned:
1. 253 to 254 °C
2. > 250 °C

Please look at the items below and tell me melting point for each one, in order.
1. CCn1c(-c2ccc(-n3ccnc3)cc2)cnc1[C@H](Cc1ccccn1)N(C=O)c1cc2cc(F)ccc2o1
2. CC1(C)SC(c2cc3ccccc3o2)NC1C(=O)O (configuration not stated)
3. CCOC(=O)c1ncn(-c2ccn(C)n2)c1N
4. CC(C)(Oc1ccc(Cl)cc1)C(=O)NCCCn1ccnc1
5. CC(=O)Nc1c(C(=O)c2cccs2)[nH]c2cc(Cl)ccc12
6. Fc1cc(F)c(-c2c(Cl)nc3nccnc3c2Cl)c(F)c1
7. Cc1ccc2c(c1)N=C(N1CCN(C)CC1)c1cc(Br)cc3ccn-2c13

Data returned:
80 to 84 °C
96 °C
168 to 170 °C
83 to 84 °C
228 to 231 °C
139 to 141 °C
153 to 155 °C

====

measured_attribute: melting point

Here's what some known entries look like.
molecule: CN(C)Cc1sc(C(c2ccc(Cl)cc2)c2c(Cl)cc(-n3ncc(=O)[nH]c3=O)cc2Cl)nc1-c1ccccc1F (stereo unspecified)
melting point: 250 °C
--
molecule: CCOC(OCC)c1cc(NC(c2ccccc2)(c2ccccc2)c2ccccc2)c(F)c(Cc2ccc(F)cc2)n1
melting point: 129 to 130 °C
--
molecule: COC(=O)[C@@H]1CCCN1S(=O)(=O)c1ccc(C)c(C(=O)Cl)c1C
melting point: 92 °C
--
molecule: COc1cccc(COc2ccc(-c3cccc(NC(Cc4ccccc4)C(=O)O)c3)cc2)c1 (stereo unspecified)
melting point: 159 to 162 °C
--
molecule: C=CCOc1cc(COC2CCCCO2)ccc1OCCI (stereo unspecified)
melting point: 103 to 104 °C
--
molecule: O[C@@H]1CCN(Cc2nc(-c3ccc4c(c3)Nc3ccccc3S4)cs2)C1
melting point: 178 to 180 °C
--
molecule: COc1cc(CC(=O)NCCOCc2ccc(C)c(C)c2)ccc1O
melting point: 82 to 83 °C
--
molecule: CC(=O)Nc1ccc(NCCOS(C)(=O)=O)c([N+](=O)[O-])c1
melting point: 166 °C
--
molecule: CC(=O)Nc1cc2c(cc1[N+](=O)[O-])[C@@H](N1CCCC1=O)[C@H](O)C(C)(C)O2 (relative stereo)
melting point: 266 to 268 °C
--
molecule: CCCc1c(SC(=S)N(CC)CC)c2cc(Br)ccc2oc1=O
melting point: 135 to 137 °C

Please look at the items below and tell me melting point for each one, in order.
1. CCOc1nc2ccccc2nc1NC(=O)N1CCN(c2cc(OC)cc(OC)c2)CC1
2. CCOC(=O)c1cc(-c2ccccc2OC)[nH]c1N
3. O=C(NCc1ccccn1)Nc1nc(C(=O)O)cs1
4. Cc1oc(-c2ccc3ccccc3c2)nc1COc1ccc(/C=C/CO)cc1

Data returned:
["149 to 150 °C", "128 °C", "220 °C", "159 to 160 °C"]

====

Provide the recorded melting point for the entries that follow.

Here's what some known entries look like.
smi: CS(=O)(=O)c1ccc(S(C)(=O)=O)nc1
result: 205 to 207 °C
//
smi: C=CCOC(=O)[C@H](Cc1ccccc1)NC(=O)C(F)(F)F
result: 44 to 45 °C

Data request: Find the measured melting point of C[C@@]1(C(=O)O)CSC(Cc2cc(F)cc(F)c2)=N1 and report it.
Data returned: 120 to 122 °C

====

Provide the recorded melting point for the entries that follow.

Here's what some known entries look like.
compound: CCCn1c(=O)c2[nH]c(/C=C/c3ccccc3)nc2n(CCC)c1=O
melting point: 259 to 261 °C
//
compound: COc1ccc(N2CCN(C(=O)C(C)(C)C3OCCc4ccccc43)CC2)cc1 (centres undefined)
melting point: 120 to 121 °C
//
compound: CCS(=O)(=O)CCn1c(=N)sc2cc(C(F)(F)C(F)(F)F)ccc21
melting point: 125 °C

Data request: Find the measured melting point of O=c1[nH]c2ccc(O)cc2n1CCN1CCN(c2cccc(C(F)(F)F)c2)CC1 and report it.
Data returned: > 250 °C

====

measured_attribute: melting point

Here's what some known entries look like.
molecule: Nc1cccc(-c2ccc(CCN3CCN(c4nnnn4-c4ccc(F)cc4)CC3)cc2)n1
melting point: 185 to 187 °C
--
molecule: COCOCc1nc(-c2ccccc2)oc1C=O
melting point: 51 to 52 °C
--
molecule: Cn1c(C(F)(F)F)cc(=O)n(-c2ccc3snc(CP(=O)(O)O)c3c2)c1=O
melting point: > 230 °C
--
molecule: CSN(C=C(C#N)C#N)c1cccc(C(C)=O)c1
melting point: 165 to 166 °C
--
molecule: COc1cc(OC)nc(Oc2ccccc2C(=O)ON(C)C)n1
melting point: 71 to 72.5 °C
--
molecule: CC1CC(=O)NN=C1c1ccc(NC(=O)CCNCC(O)COc2ccc(CCOCC3CC3)cc2)cc1 (stereo unspecified)
melting point: 54 to 56 °C

Please look at the items below and tell me melting point for each one, in order.
1. Oc1ccc2[nH]cc(CCN3CCC(O)(c4ccccc4)CC3)c2c1
2. CC(=O)OC1C(OC(=O)c2cccc([N+](=O)[O-])c2)C=C(C)C(=O)CC1(C)C (stereo unspecified)
3. Cc1c(C(=O)O)ccc(=O)n1-c1ccc(Cl)cc1

Data returned:
150 °C
108 to 110 °C
271 to 273 °C

Please look at the items below and tell me melting point for each one, in order.
1. C=CCC1(CC=C)c2cc(-c3ncncn3)ccc2-c2ccc(N(c3ccccc3)c3ccccc3)cc21
2. O=C(NCCOCCO)C12CC3CC(CC(C3)C1)C2
3. CCOC(=O)c1c(Oc2cccc(Cl)c2)c2cc(C(c3ccc(Cl)cc3)c3cnc(-c4ccccc4)[nH]3)ccc2[nH]c1=O (stereo unspecified)
4. CC1COCc2nc3cnc4cc(Br)ccc4c3n21 (stereo unspecified)
5. COc1cc(COc2nn(C)cc2CO)ccc1OCc1nc(-c2ccco2)oc1C

Data returned:
1. 235 to 237 °C
2. 72 to 73 °C
3. 189 °C
4. 207 to 209 °C
5. 132 to 133 °C

Please look at the items below and tell me melting point for each one, in order.
1. Cc1nc2c3cccc(Cl)c3ccn2c1CN(C)C
2. NC(=O)C(CCCCCCCCCCCCC(C(N)=O)C1CC1)C1CC1 (stereo unspecified)
3. COc1cc2nc(N3CCN(C(=O)C4CCc5ccccc5O4)CC3)nc(N)c2cc1OC (stereo unspecified)
4. O=C(O)c1ccc2oc3ccccc3c(=O)c2c1
5. COC(=O)c1nc(C2CCCCC2)[nH]c1-c1ccc(C)cc1
6. CON=CC(C)(C#N)NC(=O)C(Oc1ccc2ncc(Br)cc2c1)SC (stereo unspecified)
7. CCCC(=O)n1nc2c(c1NC)c(=O)n(CCC)c(=O)n2Cc1cccc(Cl)c1
8. CC(Cl)(Cl)C(NC(=O)c1ccc(Cl)cc1)NC(=NC#N)Nc1ccc(C(F)(F)F)nc1 (stereo unspecified)

Data returned:
157 to 160 °C
157 to 158 °C
165 to 167 °C
> 280 °C
210 to 213 °C
138 to 145 °C
152 to 153 °C
204 to 205 °C

Please look at the items below and tell me melting point for each one, in order.
1. O=C1N=c2ccccc2=N1
2. Oc1c(I)cc(Br)cc1I
3. CC(C)(C)N(NCc1ccccc1)C(=O)c1ccccc1
4. Nc1n[nH]c2cc(CN3CCN(Cc4cc5ccc(Cl)cc5s4)CC3=O)ccc12
5. Cc1cc(C)c(Nc2nc(C)ccc2S(=O)(=O)c2ccc(-c3ccccc3)cc2)c(C)c1
6. COc1ccc(-n2nc(C(F)(F)F)cc2CO)cc1
7. O=C(Nc1ccc(OC(F)(F)F)cc1)NC1CCN(C(=O)C2CC2)CC1
8. Cc1ccc(S(=O)(=O)Cc2ccc(C(O)(C(F)(F)F)C(F)(F)F)cc2)cc1

Data returned:
138 to 140 °C
122 to 124 °C
110 °C
246 to 248 °C
140 to 141 °C
79 °C
195 to 196 °C
129 °C

Data request: Find the measured melting point of CNC(=O)c1ccccc1-c1nc(-c2ccccc2)no1 and report it.
Data returned: 145 to 146 °C
